Test system: Bacillus subtilis
Experiment: Antibacterial activity against penicillin-susceptible Bacillus subtilis ATCC 9372 assessed as inhibition of bacterial growth measured after 20 hrs by two-fold microdilution assay
Type: functional
Recorded MIC, one value per entry.
TEST READOUT: MIC (µg/mL)

1) CCCCn1ccc2ccc(-c3ccc4c(c3)c3cc(C)ccc3c[n+]4C)cc21.[Cl-] ... 4
2) Cc1cccc2c[n+](C)c3ccc(-c4ccc5ccn(Cc6ccc(C(F)(F)F)cc6)c5c4)cc3c12.[Cl-] ... 2
3) CCCCCn1ccc2ccc(-c3ccc4c(c3)c3c(C)cccc3c[n+]4C)cc21.[Cl-] ... 2
4) CCCCn1ccc2ccc(-c3ccc4c(c3)c3c(C)cccc3c[n+]4C)cc21.[Cl-] ... 4
5) C[n+]1cc2c3c(ccc2c2ccc4cc5c(cc4c21)OCO5)OCO3 [SANGUINARIUM] ... 2
6) Cc1ccc2c[n+](C)c3ccc(-c4ccc5ccn(C)c5c4)cc3c2c1.[Cl-] ... 2
7) CCCn1ccc2ccc(-c3ccc4c(c3)c3cc(C)ccc3c[n+]4C)cc21.[Cl-] ... 64
8) Cc1ccc2c[n+](C)c3ccc(-c4ccc5ccn(Cc6ccc(C(F)(F)F)cc6)c5c4)cc3c2c1.[Cl-] ... 8
9) Cc1ccc2c(c1)c[n+](C)c1ccc(-c3nc4ccccc4s3)cc21.[Cl-] ... 4
10) Cc1cccc2c[n+](C)c3ccc(-c4ccc5ccn(Cc6ccc(OC(F)(F)F)cc6)c5c4)cc3c12.[Cl-] ... 8
11) O=C(O)c1cn(C2CC2)c2cc(N3CCNCC3)c(F)cc2c1=O [CIPROFLOXACIN] ... 4
12) CCCCCn1ccc2ccc(-c3ccc4c(c3)c3cc(C)ccc3c[n+]4C)cc21.[Cl-] ... 4
13) CCn1ccc2ccc(-c3ccc4c(c3)c3c(C)cccc3c[n+]4C)cc21.[Cl-] ... 4
14) Cc1ccc2c[n+](C)c3ccc(-c4ccc5ccn(Cc6ccc(OC(F)(F)F)cc6)c5c4)cc3c2c1.[Cl-] ... 4
15) Cc1ccc2c[n+](C)c3ccc(-c4ccc5ccn(Cc6ccccc6)c5c4)cc3c2c1.[Cl-] ... 2

* * *

Test: Hemolytic activity against mouse RBC at 1 to 16 ug/ml measured after 1 hr by hemolysis assay relative to Triton X-100
Format: ADME, cell-based, Erythrocyte
Conditions: mouse red blood cells (erythrocytes), at 1 to 16 µg/mL, dose 1-16 µg/ml, read-out: Activity
TEST READOUT: hemolysis at 1 h

1) Cc1cccc2c[n+](C)c3ccc(-c4ccc5ccn(Cc6ccccc6)c5c4)cc3c12.[Cl-] ... < 8%
2) CCCCn1ccc2ccc(-c3ccc4c(c3)c3c(C)cccc3c[n+]4C)cc21.[Cl-] ... < 8%

* * *

Tested on: Bacillus subtilis
Experiment: Bactericidal activity against penicillin-susceptible Bacillus subtilis ATCC 9372 assessed as inhibition of bacterial growth measured after 20 hrs by two-fold microdilution assay
Format: functional
TEST READOUT: MBC (µg/mL)

1) Cc1ccc2c[n+](C)c3ccc(-c4ccc5ccn(Cc6ccccc6)c5c4)cc3c2c1.[Cl-] ... 4
2) CCCCn1ccc2ccc(-c3ccc4c(c3)c3c(C)cccc3c[n+]4C)cc21.[Cl-] ... 8
3) Cc1ccc2c[n+](C)c3ccc(-c4ccc5ccn(Cc6ccc(OC(F)(F)F)cc6)c5c4)cc3c2c1.[Cl-] ... 4
4) Cc1cccc2c[n+](C)c3ccc(-c4ccc5ccn(Cc6ccccc6)c5c4)cc3c12.[Cl-] ... 16
5) CC(=O)NC[C@H]1CN(c2ccc(N3CCOCC3)c(F)c2)C(=O)O1 ... 64

Values from ChEMBL document CHEMBL4828726
